Data provenance is patent US10865415B2.

- Test system: GPR160 gene
- assayText: Quantitative RT-PCR of GPR160 expression after lentiviral shRNA infection
- Type: cell-based, human
- protocolConditions: LNCaP cells, MOI 10, 72 hours after infection, compared with control virus ShGPR160-S10
In this section we review reported inhibitory efficiency on GPR160 expression values for a set of substances.
outcomeMeasure: inhibitory efficiency on GPR160 expression (%)

substance | measurement
ShGPR160-S8: Lentivirus from pGFP-C-shGPR160 plasmid; siRNA sense strand SEQ ID NO.: 8, 5′-CCATCTACCAAAGCCTGAAGGCACAGAAT-3′ | 32.8
ShGPR160-S6: Lentivirus from pGFP-C-shGPR160 plasmid; siRNA sense strand SEQ ID NO.: 6, 5′-TTGGTACAGGCTATCAGGATAACTTCCTA-3′ | 86.2
ShGPR160-S9: Lentivirus from pGFP-C-shGPR160 plasmid; siRNA sense strand SEQ ID NO.: 9, 5′-CCATTTGTCAACTGGAAGTGCTGCTTCAT-3′ | 56.2
ShGPR160-S7: Lentivirus from pGFP-C-shGPR160 plasmid; siRNA sense strand SEQ ID NO.: 7, 5′-TTCTATGTCAGCATTCAGAGTTACTGGCT-3′ | 91.7
